Hi there, I'd appreciate the recorded inhibition (INH) for every entry that follows.
System: RAW264.7
assay overview: Anti-inflammatory activity in mouse RAW264.7 cells assessed as inhibition of LPS-induced Il-1beta secretion measured after 24 hrs by Western blot analysis relatively to control
Type: functional
Numbers only, in %.

// below: answered compounds
> print(dat)
                             line.notation    assay.endpoint  numeric.value
1  COc1ccc(S(=O)(=O)Nc2cccc(C)c2C(=O)O)cc1  inhibition (INH)             88
2  Cc1ccc(S(=O)(=O)Nc2cccc(Br)c2C(=O)O)cc1  inhibition (INH)             42

Could you now consider this next compound?
QUERY: # get_value(readout= inhibition (INH), system= RAW264.7) for `Cc1ccc(S(=O)(=O)Nc2cccc(C(F)(F)F)c2C(=O)O)cc1`
RESULT: 21
